# METHOD SUMMARY: High Throughput Screening for Foot and Mouth Disease Virus Antivirals; note: nearly all actives have a fitted effect of over 45% in size
# MEASUREMENT PARAMETERS: FMDV antiviral cell-based qHTS; series mostly up to 57.9 µM
Among all 410,000 compounds or so, about 5,100 (1.2%) were called active. Roughly 8% stayed inconclusive and do not appear here. Calls come from the whole dose curve; tested in HEK293T cells. The full list was thinned out, with actives kept by preference.
Outcome codes: True (active), False (inactive)

COc1ccc(-c2nn(C)c(=O)c3ccccc23)cc1NC(=O)COc1ccccc1    True
Cn1c(=O)c(-c2ccccc2)nc2cnc(N3CCNCC3)nc21    False
CN1CCN(C(=O)O[C@@H]2c3nccnc3C(=O)N2c2ccc(Cl)cn2)CC1    False
CCN1C(=O)C(=Cc2c(C)n(CC(=O)NCC3CCCO3)c3ccccc23)C(=O)N(CC)C1=S (stereo unspecified)    True
COc1ccc(CCNC(=O)c2nnc(CS(=O)(=O)c3ccccc3)o2)cc1OC    False
CCC1CN(CCNC(=O)c2cccc(C)n2)Cc2cc(OC)ccc2O1 (stereo unspecified)    False
CN1CCN(c2ncc3nc(-c4ccc(Cl)cc4)c(=O)n(-c4ccccc4)c3n2)CC1    False
COc1ccccc1-c1nc(NCc2cccs2)c2ccccc2n1    False
CC1C(C)N(C(=O)CCl)c2ccccc2N1C(=O)CCl (stereo unspecified)    True
COc1ccc(CCNC(=O)CCn2c(=O)c3ccccc3n(CC(=O)NCC3CCCO3)c2=O)cc1OC (stereo unspecified)    False
COc1ccc(C(=O)NCc2ccc(Cl)cc2)cc1S(=O)(=O)N1CCCC1    False
CNC(=O)N1c2ccccc2C=Cc2ccccc21    False
CCOC(=O)c1c(S(=O)(=O)N2CCCC(C(=O)NCc3cccc(C)c3)C2)c(C)n(C)c1C (stereo unspecified)    False
C=C1C([C@@]2(C)C(OC(C)=O)CC(=O)O[C@@](C)(COC(C)=O)C2CC(=O)OC)C(OC=O)C(OC(=O)C(O)C(C)CC)[C@]2(C)C(c3ccoc3)CC(=O)C12O (stereo partly specified)    False
Cc1ccc(C)c(N2CCN(C(=O)CCCCn3c(=O)[nH]c4ccccc4c3=O)CC2)c1    True
O=S(=O)(c1ccc(Br)cc1)c1nnn2c1nc(NC1CCCCCC1)c1sccc12    False
CC(C)C(=O)NC(C)c1nnc2n1CCN(Cc1cccc3ncccc13)CC2 (stereo unspecified)    False
COc1ccc(CN2CCOc3c(cc(-c4ncc(C(F)(F)F)cc4Cl)cc3OCC3CCCO3)C2)c(O)c1 (stereo unspecified)    False
CC(C)NC[C@H](O)c1ccc2ccccc2c1    False
Cc1ccc(OCCCC(=O)N2CCOCC2)c(C)c1    False
COc1ccc(Cc2nc3ccc(C(=O)NCc4ccccc4C)cc3o2)cc1    False
COc1ccc(S(=O)(=O)NCC(c2ccc(N(C)C)cc2)N2CCCC2)cc1 (stereo unspecified)    False
O=C(O)C1CCN(c2ncnc3ccc(-c4ccccc4C(F)(F)F)cc23)CC1    False
CCc1c(C)sc(NC(=O)C2c3ccccc3Oc3ccccc32)c1C(=O)OC(C)C    False
O=C(c1csnn1)N1CCC[C@@]2(CCN(c3cccc(-c4ccccc4)c3)C2)C1    False
COc1cc2nc(NCC(C)c3ccccc3)n3nc(-c4ccccc4)nc3c2cc1OC (stereo unspecified)    False
O=C(NCc1cccnc1)c1ccc(CS(=O)(=O)c2ccc(Br)cc2)o1    False
COc1ccc(CNC(=O)c2ccc(NC(=O)N3CC4CCCN4c4ccccc43)cc2)cc1 (stereo unspecified)    False
COc1ccc(C2CC(=O)N(Cc3ccccc3C)c3c2c(C)nn3-c2nc(C)cc(C)n2)c(OC)c1 (stereo unspecified)    False
COc1ccc(-c2nc3ccccc3s2)cc1NC(=O)COc1ccccc1C    False
COCC(C)NS(=O)(=O)c1ccc(N2CCCCS2(=O)=O)cc1 (stereo unspecified)    False
O=c1c(-c2cc(F)cc(F)c2)nc2cnc(Oc3ccccc3)nc2n1C[C@H]1CCCO1    False
COc1ccc(OCCCn2c(C)nc3cc(C)c(C)cc32)cc1    False
Cc1c(-c2cccc(NC(=O)C(C)(C)C)c2)nc2ncccn12    False
CNc1ncnc2ccc(-c3cccc(NS(C)(=O)=O)c3)cc12    False
Cc1ccc(C)c(N2CCN(C(=O)Cn3nc(C)c4sc5ccccc5c4c3=O)CC2)c1    False
Nc1nc2c(nc(Cl)n2C2OC(CO)C(O)C2O)c(=O)[nH]1 (stereo unspecified)    False
Cc1ccc(C)c(N2CCN(C(=O)CCCCCn3c(=S)[nH]c4ccc(N5CCOCC5)cc4c3=O)CC2)c1    True
Cc1ccc(C)c(N2CCN(C(=O)CCc3c(C)nc4c(c3C)c(=O)n(C)c(=O)n4C)CC2)c1    False
Cc1nn(CC(=O)NCC2CCCO2)c(=O)c2cc3ccccc3n12 (stereo unspecified)    False
Cc1ccn(CCC(=O)N2c3ccccc3CC2C)n1 (stereo unspecified)    False
